B1: CPEB3 Ribozyme (parent)
chain: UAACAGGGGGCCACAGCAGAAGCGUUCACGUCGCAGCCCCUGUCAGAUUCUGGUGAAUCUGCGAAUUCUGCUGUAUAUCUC

- Variants of: B1
- test-summary: self-cleavage, relative activity (ratio to wild type); higher = more cleavage; in vitro, sequencing
observation-type: self-cleavage
Answers are plain numbers.

Here is how some variants turned out for self-cleavage.
Prompt line: Recorded self-cleavage of G22A U26C , please.
Response line: 0.19

Prompt line: Now consider U31C U74G and answer again.
Response line: 1.23

Prompt line: Then this variant: C71G U80G
Response line: 0.4

Prompt line: How about G6C U58A ?
Response line: 0.21

Prompt line: Okay, and A20C U72C ?
Response line: 0.3

For each of the variants below, note its self-cleavage.
1. C17U
2. A47G G70A
3. C37U U69C
4. C38G U49A
5. A35G C38A

Response line:
1: 0.73; 2: 0.77; 3: 0.42; 4: 0.26; 5: 1.21
